RUN DESCRIPTION: in vitro
Type: in vitro ADME, Akkermansia muciniphila
ASSAY CONTEXT: cells or culture medium, VAMP remaining, incubated with A. muciniphila, time 48
Where a SMILES comes first, the peptide text is derived from it.
REPORTED PROPERTY: remaining at 48 h, 100 μM (%)
Give the number; % is assumed, so skip it.

INPUT: Supply recorded remaining at 48 h, 100 μM for CSCC[C@H](NC(=O)[C@H](C)NC(=O)[C@@H](N)C(C)C)C(=O)N1CCC[C@H]1C(=O)O [VAMP] (H-VAMP-OH) here.
OUTPUT: 19.3

All figures here come from paper PMC12527977.
